// data source = the supplement of paper PMC10307832

System: PC-14
Test: relative viability (nuclei count vs DMSO), 5 days (fraction); higher = more cells survive
Details: first compound 0.003162 µM
recorded-endpoint: relative viability

| molecule | relative viability |
| --- | --- |
| Cc1cn(-c2cc(NC(=O)c3ccc(C)c(Nc4nccc(-c5cccnc5)n4)c3)cc(C(F)(F)F)c2)cn1 [Nilotinib] + CCNC(=O)c1noc(-c2cc(C(C)C)c(O)cc2O)c1-c1ccc(CN2CCOCC2)cc1 [Luminespib] (partner 0.01 µM) | 0.152 |

# next molecule below
Value wanted: relative viability (PC-14) of entry Cc1cn(-c2cc(NC(=O)c3ccc(C)c(Nc4nccc(-c5cccnc5)n4)c3)cc(C(F)(F)F)c2)cn1 [Nilotinib] + Cc1cc(Nc2cc(N3CCN(C)CC3)nc(Sc3ccc(NC(=O)C4CC4)cc3)n2)n[nH]1 [Tozasertib] (partner 0.1 µM)
0.485
